TARGET_UNDER_TEST: CYP1A2 (Homo sapiens)
Sequence (P05177 whole entry): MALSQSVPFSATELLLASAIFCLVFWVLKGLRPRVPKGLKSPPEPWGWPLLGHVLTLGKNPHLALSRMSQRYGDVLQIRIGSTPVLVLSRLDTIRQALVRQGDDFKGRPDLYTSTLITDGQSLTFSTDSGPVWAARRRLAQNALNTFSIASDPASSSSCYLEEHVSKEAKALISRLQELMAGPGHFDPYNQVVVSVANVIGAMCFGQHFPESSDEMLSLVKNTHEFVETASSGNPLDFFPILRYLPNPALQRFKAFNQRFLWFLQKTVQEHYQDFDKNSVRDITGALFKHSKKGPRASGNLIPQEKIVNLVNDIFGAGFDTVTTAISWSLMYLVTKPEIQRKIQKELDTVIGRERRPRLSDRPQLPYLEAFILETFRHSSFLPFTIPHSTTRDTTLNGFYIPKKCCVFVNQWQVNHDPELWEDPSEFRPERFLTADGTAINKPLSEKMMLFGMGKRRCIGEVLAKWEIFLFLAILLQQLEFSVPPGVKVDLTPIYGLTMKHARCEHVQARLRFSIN
ASSAY_REMARKS: Reversible CYP inhibition in human liver microsomes
SETUP_CONDITIONS: human, microsomes, pH 7.4, Percent of Control Activity, CYP 1A2, 93.5 µM, Zero-Minute Preincubation
VALUE_KIND: activity at 93.5 µM (%)
Give bare numbers, in %.

What value of activity at 93.5 µM has been recorded for this entry: COc1cccc2[nH]c(C(=O)N[C@@H](CC(C)C)C(=O)N[C@@H](C[C@@H]3CCNC3=O)C(=O)CO)cc12
84.6

----------
TARGET_UNDER_TEST: CYP2C8 (Homo sapiens, UniProt P10632)
Sequence (P10632 1-490): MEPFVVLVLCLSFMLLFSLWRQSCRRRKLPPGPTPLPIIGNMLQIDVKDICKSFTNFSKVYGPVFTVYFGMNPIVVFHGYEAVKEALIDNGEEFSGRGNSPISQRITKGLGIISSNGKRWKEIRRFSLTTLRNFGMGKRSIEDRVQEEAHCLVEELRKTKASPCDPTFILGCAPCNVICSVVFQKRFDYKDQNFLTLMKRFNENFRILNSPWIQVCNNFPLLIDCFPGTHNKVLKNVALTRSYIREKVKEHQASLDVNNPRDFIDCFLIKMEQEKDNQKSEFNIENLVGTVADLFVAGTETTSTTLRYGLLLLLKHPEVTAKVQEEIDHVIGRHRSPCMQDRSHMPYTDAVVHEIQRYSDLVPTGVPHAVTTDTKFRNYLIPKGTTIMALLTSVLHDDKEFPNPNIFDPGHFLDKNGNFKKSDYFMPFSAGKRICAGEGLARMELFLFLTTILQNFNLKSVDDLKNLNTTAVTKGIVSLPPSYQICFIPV
ASSAY_REMARKS: Reversible CYP inhibition in human liver microsomes
SETUP_CONDITIONS: human, microsomes, pH 7.4, Percent of Control Activity, CYP 2C8, 0.979 µM, 30-Minute Preincubation
VALUE_KIND: activity at 0.979 µM (%)
Give bare numbers, in %.

What value of activity at 0.979 µM has been recorded for this entry: COc1cccc2[nH]c(C(=O)N[C@@H](CC(C)C)C(=O)N[C@@H](C[C@@H]3CCNC3=O)C(=O)CO)cc12
98.3

----------
TARGET_UNDER_TEST: OCT1 (Homo sapiens, UniProt O15245)
Construct: expressed in transfected cells; host or cells: HEK293
Sequence (O15245 whole entry): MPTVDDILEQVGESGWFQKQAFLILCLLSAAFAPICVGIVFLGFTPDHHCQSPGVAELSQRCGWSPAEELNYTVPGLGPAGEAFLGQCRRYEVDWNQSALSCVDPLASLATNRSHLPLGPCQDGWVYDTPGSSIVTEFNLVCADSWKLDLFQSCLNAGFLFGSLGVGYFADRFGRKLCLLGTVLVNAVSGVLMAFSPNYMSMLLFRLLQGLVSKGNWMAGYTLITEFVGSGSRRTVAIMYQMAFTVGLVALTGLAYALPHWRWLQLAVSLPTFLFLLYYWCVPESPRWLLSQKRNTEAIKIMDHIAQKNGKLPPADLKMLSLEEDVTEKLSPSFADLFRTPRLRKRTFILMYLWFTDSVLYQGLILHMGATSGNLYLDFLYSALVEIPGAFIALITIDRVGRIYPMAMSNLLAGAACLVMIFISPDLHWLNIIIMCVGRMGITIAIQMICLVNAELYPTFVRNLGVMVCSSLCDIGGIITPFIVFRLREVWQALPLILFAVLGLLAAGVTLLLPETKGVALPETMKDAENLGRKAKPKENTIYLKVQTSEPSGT
ASSAY_REMARKS: Transporter inhibition using transfected HEK293 cells
Format: in vitro ADME
SETUP_CONDITIONS: human, HEK293 cells stably transfected with OCT1, pH 7.4, probe [14C]-metformin (10 µM), IC50, [14C]Metformin (10 µM)
VALUE_KIND: IC50

What value of IC50 has been recorded for this entry: COc1cccc2[nH]c(C(=O)N[C@@H](CC(C)C)C(=O)N[C@@H](C[C@@H]3CCNC3=O)C(=O)CO)cc12 [PF-00835231]
> 20 µM

----------
Test system: CYP3A4/5
ASSAY_REMARKS: Reversible CYP inhibition in human liver microsomes
SETUP_CONDITIONS: human, human liver microsomes, pH 7.4, probe midazolam (mdz), Percent of Control Activity, CYP 3A4/5 (mdz), 0.979 µM, Zero-Minute Preincubation
VALUE_KIND: activity at 0.979 µM (%)
One number for each entry, in %.

What value of activity at 0.979 µM has been recorded for this entry: COc1cccc2[nH]c(C(=O)N[C@@H](CC(C)C)C(=O)N[C@@H](C[C@@H]3CCNC3=O)C(=O)CO)cc12 [PF-00835231]
115
